growth for assorted compounds
system: UO-31 renal; experiment: NCI-60 one-dose screen, 48 h (100 = growth as untreated, 0 = no growth, -100 = all killed); settings: 10 µM unless noted
Compounds without any hit were thinned out: in the full panel of roughly 83,000, 20% have a hit.

- compound: "C[C@@H]1N=C(c2ccc3ccccc3c2)Nc2nc3ccccn3c2C1=O"
  displayUnit: "%"
  growth: 55.6
- compound: "N/N=C(\\C(=N\\N)c1ccccc1)c1ccccc1"
  displayUnit: "%"
  growth: 73.6
- compound: "COc1cc(OC)c(Cl)cc1N"
  displayUnit: "%"
  growth: 91.3
- compound: "CC(C)CC1NC(=O)C(CC(C)C)N(CO)C1=O (stereo unspecified)"
  displayUnit: "%"
  growth: 84.5
- compound: "CCNCCCn1c2c(c3ccc(Cl)cc3c1=O)C(=O)c1cc(OC)cnc1-2"
  displayUnit: "%"
  growth: 10.3
- compound: "O=C(Nc1cccc(C2=NCCN2)c1)c1ccc(N=Nc2ccc(C(=O)Nc3cccc(C4=NCCN4)c3)cc2)cc1"
  displayUnit: "%"
  growth: 72.8
